Cited source: the array DNA melting data of Ke et al. (doi:10.1101/2024.01.08.574731)

experiment: melting temperature; fluorescence melt of hairpins on a sequencing array, two-state fit, raised by 9.35 °C to match UV melts; conditions: sodium 0.088 M
measured-property: Tm (°C)
Numeric answer only, unit °C assumed.

Examples with their reported Tm follow.
>  <sequence-entry>
GATTGGACGAAAGTCATC (((..(((....))))))

>  <Tm [°C]>
27

$$$$
>  <sequence-entry>
GACTTGGAAACAAGTC ((((((....))))))

>  <Tm [°C]>
54.2

$$$$
>  <sequence-entry>
GATGACACGAAAGTGATC (((..(((....))))))

>  <Tm [°C]>
30.9

$$$$
>  <sequence-entry>
GTAATACGAAAGTACTAC (((.(((....))).)))

>  <Tm [°C]>
31.1

$$$$
>  <sequence-entry>
GAGCGTGGAAACACACTC (((.(((....))).)))

>  <Tm [°C]>
45.9

$$$$

Next up:
Task item: Item GATCTGAGACAGATC ((((((...)))))) : provide Tm
Reply: 46.8
